testProtocol: NCI Yeast Anticancer Drug Screen. Data for the rad50 strain (AID 155);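 also: 0% = growth of vehicle-only cultures of the same strain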
testParameters: S. cerevisiae rad50 strain growth inhibition; at 5.0 µM (retest, dose inferred, filed as 0.5)
This is part of a sample that, as a whole, favours compounds with a hit. Of some 79,000 tested, about 15% had one in any assay. Calls of active or inactive are those of the source. Rule as the data show it: active = growth inhibition above about 70%; inactive = the rest.
Respond using exactly one of the listed classes: active, inactive

Here are 3 molecules together with their reported answers.
molecule	classification
Nc1ccc(S(=O)(=O)O)c2cccc(S(=O)(=O)O)c12	inactive
CCN(CC)CCOc1ccc(/C=C/c2ccccc2)cc1	inactive
Nc1ccc(C2CCC[C@H]2c2ccc(N)cc2)cc1 (some centres undefined)	inactive

In: Could you check what this test reported for CN(C)CCC(/C=C/c1ccccc1)=N\Nc1ccc(Cl)cc1Cl ?
Out: inactive

In: Hey, what did the test say about Clc1ccc2oc(N3CCCCC3)nc2c1 ?
Out: inactive

In: Write down the call the test reported for this molecule. Item: CC(C)(Sc1cc(Cl)c(Cl)c(Cl)c1)C(=O)OCCN1CCOCC1
Out: active

In: Recorded test call requested for CCN(CC)CCN1C(=O)c2c(c3c4cccc(Cl)c4n(C4OC(CO)C(OC)C(O)C4O)c3c3[nH]c4c(Cl)cccc4c23)C1=O (centres undefined)
Out: active

In: Which result was noted for this molecule in the test: Cc1c(S(C)=O)[n+](=O)c2ccccc2n1[O-] (centres undefined)
Out: inactive

In: What call does the record list for CC(C(O)c1ccccc1)C(O)(C(F)(F)F)C(F)(F)F (centres undefined) ?
Out: inactive

In: Recorded test outcome, item CC(C)(C)C(=O)/C=C/c1ccc2ccccc2n1
Out: inactive

In: How did this test come out for CNC(=O)c1ccc(OC)cc1C1(O)c2ccccc2CCc2ccccc21 ?
Out: inactive

In: What outcome does the record of this test show for CCN(CC)CCNCc1ccccc1 ?
Out: inactive

In: Given CCOC(=O)C(CO)c1nc2c([nH]c1=O)c(=O)n(C)c(=O)n2C (centres undefined) , state the outcome it received in this test.
Out: inactive

In: # fetch the recorded call for CC(=O)Nc1ccc(/S(=N\S(=O)(=O)c2ccc(C)cc2)c2ccc(NC(C)=O)cn2)cc1 (centres undefined) here
Out: inactive

In: GET /call?item= Nc1ccc(Sc2c3ccccc3nc3ccccc23)cc1 returns the recorded outcome of this test.
Out: inactive

In: Please let me know the test result on file for O=C(O)c1cc2cc3ccccc3cc2cc1O .
Out: inactive

In: Test call, this molecule: Cc1cc(N2C(=O)CSC2=S)ccc1Cl
Out: inactive

In: Which outcome was assigned to C/C=C(\C)C(=O)O[C@@H]1CC(C)(C)CC2C3=CCC4[C@]56CC[C@](O)(OC5)C(C)(C)C6CC[C@@]4(C)C3(C)CC[C@]21C(=O)O (some centres undefined) in this test?
Out: inactive

In: Just curious, what result did O=C(NCCCNCCNC(=O)c1cc(-c2ccccc2)nc2ccccc12)c1cc(-c2ccccc2)nc2ccccc12 get here?
Out: inactive

----------
testProtocol: NCI Yeast Anticancer Drug Screen. Data for the rad50 strain (AID 155);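 also: 0% = growth of vehicle-only cultures of the same strain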
testParameters: S. cerevisiae rad50 strain growth inhibition; at 50.0 µM; active compounds read high
About 79,000 compounds went through this panel and 15% of them were active in at least one assay; those are over-represented in the sample as a whole. Calls of active or inactive are those of the source. Cut-off read from the data, not from the text of the source: active = growth inhibition above about 70%; inactive = the rest.
# key: entry, value: growth inhibition

compound	growth inhibition
O=C1c2cccnc2-c2nccc3c2c1nc1cc(Br)ccc13	88.7% (active)
O=C1C2=Cc3ccccc3CCN2c2ccccc21	88.3% (active)

Now look at this one.
In: Param item = CCOC(=O)C1SC(=Nc2ccc(Cl)cc2)N=C1C (stereo not drawn) ; retrieve measured growth inhibition.
Out: 88.8% (active)

Origin of the recorded values: PubChem BioAssay (NCI)
